# ASSAY_METHOD_TEXT: yeast display, Sf9 membrane polyspecificity reagent, FACS + sequencing; frameworks hold sequencing errors
READOUT_TYPE: polyreactivity (PSR sort gate)

Use the examples below as a reference point.
QVQLVESGGGLVQAGGSLRLSCAASGFTIHGNAMGWYRPAPGKERELVAGISSSGASTYYADSVKGRFTISRDNAKNTVFLQMNSLKPEDTAVYYCAVRYYGRYLRYNYWGQGTQVTVSS	high polyreactivity
QVQLVESGGGLVQAGGSLRLSCAASGITFFDYAMGWSRQAPGKERELVAAIDLSDGRTYYADSVKGRFTISRDNAKNTFYLQMNSLKPEDTAVYYCAAVSTSLYWAGYDYWGQGTQVTVSS	low polyreactivity
QVQLVESGGGLVQAGGSLRLSCAPSGSIFWLYDMGWYRPAPGKERELVAAIDSGDSTKYADSVKGRFTISRDNAKNTVYLQMNSLKPEDTAVYYCNASRRYHVRAPYDYWGQGTQVTVSS	low polyreactivity
QVQLVESGGGLVQAGGSLRLSCAASGSTFSAKTIGGYRQAPGKEMELVAGITITGDTYYADSVKGRFTISRDNAKNTVYLQMNSLKPEDTAVYYCAAAWYEPATQTGYFEFDYWGQGTQVTVSS	low polyreactivity
QVQLVESGGGLVQAGGSLRLSCAASGGTFGTNAMGWYRQAPGKERELVATIRTSVGSTYYADSVKGRFTISRDNAKNTVYLQMNSVKPEDTAVYYCAAGVPKNGQAGYDYWGQGTQVTVSS	high polyreactivity

Report polyreactivity (PSR sort gate) for every entry below.
1. QVQLVESGGGLFQAVGSLRLSCAASGLFFIKYTMGWYRQAPGKERELFAVISGSGGSTYYADSVKGRFTISRDNAKNTVYLQMNSLKPEDTAVYYCAARSYALGYGGGYWGQGTQVTVSS
2. QVQLVESGGGLVQAGGSLRLSCAASGSIFVYNAMGRYRQAPGKEREYVAAITYSGGSTYYADSVKGRFTISRDNAKNTVDLQMNSLKPEDTAVYYCAADYFQHVPKYGYWGQGTQVNVSS
3. QVQLVESGGGLVQAGGSLRLSCAASGSIFGKYAMGWYRQAPGKERELVAAITGRGASTYYADSVKGRFTISRDNAKNTVYLQMNSLKPVDTAVYYCAARASWYYVYPYDYWGQGTQVTVSS
4. QVQLVESGGGLVQAGGSLRLSCAASGSILGIYGMGWYRQSRGKERELVAAISYSGGSTYYADSVKGRFSISRDNAKNTVYLQMNSLKPEDTAVYYCAADLTRGVSYYVDFYYWGQGTQVTVSS
5. QVQLVESGGGLVQAGGSLRLSCAASGRTFVYYAMGWYRQAPGKEREFVATITSSGGSTYYADSVKGRFTISRDNAKNTVYLQMNSLKPEDTAVYYCAASPYIRYSKVSKYYYWGQGTQVTVSS
6. QVQLVESGGGLVQAGGSLRLSCAASGITFGAYTMGWYRQAPGKERELVAAISRTGARTYYADSVKGRFTISRDNAKNTVYLQMNSLKPEDTAVYYCAAYRIGQYDYWGQGTQVTVSS

["high polyreactivity", "low polyreactivity", "low polyreactivity", "low polyreactivity", "high polyreactivity", "high polyreactivity"]

* * *

# ASSAY_METHOD_TEXT: yeast display, Sf9 membrane polyspecificity reagent, FACS + sequencing; frameworks hold sequencing errors
READOUT_TYPE: polyreactivity (PSR sort gate)

QVQLVESGGGLVQAGGSLRLSCAASGSTFAYYTMGWYRQAPGKERELVAAITSGGRTSYADSVKGRFTISRDNAKNTVYLQMNSLKPEDTAVYYCAKGRKPGYYYWGQGTQVTVSS	high polyreactivity
QVQLVESGGGLVQAGGSLRLSCAASGLIFYGYVMGWYRHAPGKERELVAGISRNYGSTYYADSVKGRFTISRDNAKHTVYLQMNSLKPEDTAVYYCAALTFEAWAGEDYWGQGTQVTVTS	low polyreactivity
QVQLQESGGGLVQAGGSLCLSCAASGTIFFDGDMGWYRQAPGKEREFVAAINPGGSAYYADSVKGRLPLAAITHSVYLQMNSLKPEDTAVYYCAAKLFDVYGYYYWGQGTHVTVSS	low polyreactivity
QVQLVESGGGLVQAGGSLRLSCAACGNTFYWNAMGLYRQAPGKERELVAAISTTGVSTYYADSVKGRFTISRDNAKNTVYLQMNSLKPEDTAVYYCAAEIIGYHTIYDYWGQGTQVTVSS	low polyreactivity
QVQLVESRGGLVQAGGSLRLSCAASGLTFVYYAMGWYRQAPGKERELVASIDYSGSSTYYADSVKGRFTISRDNAKNTVYLQMNSLKPEDTAVYYCAATDSGEYWGQGTQVTVSS	low polyreactivity
QVQLVESGGGLVQAGGSLRLSCAASGRTFTYNTMGWYRQAPGKERELVAAISSSGGSTYYADSVKGRFTISRDNAKNTVYLKMNCLKPEDTAVYYCAKRYFSSSRYYYWGQGTKVTVSS	high polyreactivity
QVQLVESGGGLVQAGGSLRLSCAASGRTFKLNAMGWYRQAPGKERELVAAISRNGGSTYYADSVKGRFTISRDNAKNTVYLQMNSLKPEDTAVYYCAAVRHGVSLAGYYWGQGTQVTVSS	high polyreactivity
QVQLVESGGGLVQAGGSLRLSCAASGRNFYQYGMGWYREAPGKERELVAAISDSGGGTYYADSVKGRFTISGDNAKNTVYLQMNSLKPEDSAVYYCAATYVGPRRRYYYWGQGTQVTVSS	high polyreactivity

# return polyreactivity (PSR sort gate) for each item in the list
1. QVQLVESGGGLVQAGGSLRLSCGASGRTFGRYAMGWYRQAPGKERELVDAITWSGGSTYYADSVKGRFTISRDNAKNTVYLQMNSLKPEDTAVYYCAASGYPIYHDDYWGQGTQVTVSS
2. QVQLVESGGGLVQAGGSLRLSCAASGRTFVRYTMGWYRQAPVKERELVATISYNGGRTYYADSVKGRFTISRDNAKNTVYLQMNSLKPEDTAVYYCATRLPKSSLHDYWGQGTQVTVSS

low polyreactivity
high polyreactivity

Reported polyreactivity (PSR sort gate) of QVQLVESGGGLVQAGGSLRLSCAASGSTFVIYTMGWCRQAPGKERELVAAISWSGGITRYADSVKGRFTISRDNAKNTVYLQMNSLKPEDTAVYYCNASQWPSLFDYWGQGTQVTVSS : low polyreactivity

* * *

# ASSAY_METHOD_TEXT: yeast display, Sf9 membrane polyspecificity reagent, FACS + sequencing; frameworks hold sequencing errors
READOUT_TYPE: polyreactivity (PSR sort gate)

QVQLVESGGGLVQAGGSLRLSCAASGFIFVSNAMGWYRQAPGKERELVATITNGDRTYYADSVKGRFTISRDNAKNTVYLQMNSLKPEDTGVYYCNADDQVGSIWKWYGKYEYRGQGTQVTVSS	low polyreactivity
QVQLVESGGGLVQAGGSLRLSCAASGRIFSINAMGWYRQAPGKERELVAAITSRGTSTYYADSVKGRFTISRDNAKNTVYLQMNSMKPEDTAVYYCAKKYVGGPWPRYFWGQGTQVTVSS	high polyreactivity
QVQLVESGGGLVQAGGSLRLSCAASGRIFYEYASGWYRQAPGKERELVAISTSGGNTYYADSVKGRFTISRDNAKNTVYLQMNSLKPDDTAVYYCAARLQYYPYYYWGQGTQVTVSS	high polyreactivity
QVQLVESGGGLVQAGGSLRLSCAASGSTFFHYPMGWYIQATGKERELVAAISWSGGRTSYADSVKGRFTISRDNAKNTVYLQKNSLKPEDTAVYYCAARGRYKDVYRMDYWGQGTQVTVSS	high polyreactivity

# polyreactivity (PSR sort gate) of QVQLVESGGGLVQAGGSLRLSCAASGFILLYYAMGWYRQAPGKERELVAAISWTGGRTYYADSVKGRFTISRDNAKNTVYLQMNSLKPEDTAVYYCNTVKFFGRKYGYWGQGTQVTVSS = low polyreactivity

* * *

# ASSAY_METHOD_TEXT: yeast display, Sf9 membrane polyspecificity reagent, FACS + sequencing; frameworks hold sequencing errors
READOUT_TYPE: polyreactivity (PSR sort gate)

QVQDVESGGGLVQAGGSLRLSCAAYGFIFYSYAMGWYRQAPGKERELVAAISTGDGSTTFADSVKGRFTISRDNAKNSVYLQMNSLKPEDTAVYYCNVKYRACYRTDFEYWGQGTQVTVSS	low polyreactivity
QVQLVESGGGLVQAGGSLRLSCAASGSIIARYAMGSYRQAPGKERELVATITRGGSTNYADSVKGRFTISRDNAKNTVYLQMNSLKPEDTAVYYCARTSYGRLDYWGQGTQVTVSS	low polyreactivity

* * *

# ASSAY_METHOD_TEXT: yeast display, Sf9 membrane polyspecificity reagent, FACS + sequencing; frameworks hold sequencing errors
READOUT_TYPE: polyreactivity (PSR sort gate)

QVQLVESGGGLVQAGGSLRLSCAASGSIFDGYAMRWYRQAPGKERELVAAIRWGDGITYYADSVKGRFTISRDIAKNTVYLLMNSLKPVDTAVYYCAAVQHGHEPRVQDSYDYWGQGTQVTVSS	low polyreactivity
QVQLVESGGGLVQAGGSLRLSCAASGSNFKSNAMGLYRPAPGKERELVAAINRSGAGTYYADSVKGRFTISRDNAKNTVYLQMNSLKPEDTAVYYCAAQSYSRRYDYWGQGTQVTVSS	high polyreactivity
QVQLVESGGGLVQAGGSLRLSCAASGITFHGYAMGWYRQAPGKERELVAAISDSGSSTYYADSVKGRFTISRDNAKNTVYLQMNSLKPEDTAVYYCAAVSGFYDQYDYWGQGTQVTVSS	low polyreactivity
QVQLVESGGGLVQAGGSLRLSCAASGFIFWLYAMGWYRQAPGKERELVAAISRSGGRTYYADSVKGRFTISRDNAKITVYLQMNSLKPEDTAVYYFAKVDNYKSYPYDYWGQGTQVTVSS	high polyreactivity
QVQLVESGGGLVQAGGSLRLSCAASGSNFYLYAMGWYRQAPGKERELVAAITSIGGSTYADSVKGRFTISRDNAKNTVYLQMNSLKPEDTAVYYCNTDEYPLTVQVQYYYWGQGTQVTVSS	low polyreactivity
QGQHVESGGGLVQAGGRLRLSCAASGSILSGYEMGRSREAPGKERELVASITRGGSTYYADSVKGRFTISRDNANNSVYFQMNSLNPEDPAVYDCARYGSKNRRLGMDYWGQGTQVTVSS	low polyreactivity
QVQLVESGGGLVQAGGSLRLSCAASGFIGWYRQAPGKERELVAAISWRGGRTYYADSVKGRFTISRDNAKNTVYLQMNSLKPEDTAVYYCNAVGNVWGYDSWGQGTQVTVSS	high polyreactivity
QVQLVESGGGLVQAGGSLRLSCAASGSTSVGNAMGWYRQAPGKERELVAAISRIGGTTYYADSVKGRFTISRDNAKNTVYLQMNSLKPEDTAVYYCNVLKRYWSGRVDYWGQGTQVTVSS	high polyreactivity

Look at each sequence and report its polyreactivity (PSR sort gate).
1. TYRGTTTYYADSVKGRFPIARDYAKNTVYLQMHSLKPEETAVYNWTRYYPSEYDYWGQGTHVTVSS
2. QVQLVESGGGLVQAGGSLRLSCAASGSNLYKYAMGWYRPAPGKERELVASITWSDGNTNYADSVKGRFTISRHNAKNTVYLQMNSLKPEDTAVYYCAADWRYILRGDDYWGQGTQVTVSS

1: high polyreactivity; 2: low polyreactivity

// polyreactivity (PSR sort gate) lookup, sequence = QVQLVESGGGLVQAGGSLRLSCAASGSTIGAYAMGWYRQAPGKERELVAAITFSVGSTYYADSVKGRFTISRDNAKNTVYLQMNSLKPEDTAVYYCAADYYIYRSKYYQSTIQGYYYWGQGTQVTVSS , result: high polyreactivity
